Ref: the kinase profiling compilation of Christmann-Franck et al. (2016)

List of inhibition values.
Target: PLK1 (human)
Assay: radiometric filter-binding kinase assay
Details: compound 100.0 µM; ATP 5 µM
Kindly answer with a numeric value in %, unit omitted.

Request: Consider the molecule `CC(C)(C)Nc1c(C2CC2)nc2[nH]cnn12` and give its measured inhibition.
Result: 0

Request: Give the measured inhibition of `O=C(Nc1cnc2[nH]ccn2c1=O)c1ccccc1` .
Result: 10

Request: Using the record for `Nc1nc2cnc(-c3ccccc3)cn2n1` , report its inhibition.
Result: 18

Request: // inhibition lookup, key: `CC(=O)Nc1nc2cnc(-c3ccccc3)cn2n1`
Result: 4

Request: I have this molecule here, CC1CN(c2nc3ccccn3c(=O)c2N)CC(C)O1 (stereo not given) , and I need its recorded inhibition.
Result: 0

Request: Sample `CC(C)(C)Nc1c(COCc2ccccc2)nc2[nH]cnn12` — what was its inhibition?
Result: 0

Request: # get_value(readout='inhibition', item= `COc1ccc(NC(=S)Nc2cnc3[nH]cnn3c2=O)cn1` )
Result: 8

Request: // inhibition lookup, key: `CC(=O)Nc1nc2cnc(-c3c(C)cccc3C)cn2n1`
Result: 0

Request: // query inhibition value for entry `O=C(c1cccc(-c2cc3c(=O)[nH]cnc3s2)c1)N1CCOCC1`
Result: 0

Request: Reported inhibition for `COc1ccc(-c2cc3c(=O)[nH]cnc3s2)cc1OC` : what is it?
Result: 0

Request: Param item = `Nc1cnc2c(-c3c(F)cccc3F)cccn2c1=O` ; retrieve measured inhibition.
Result: 0
